// provenance: patent US11384099B2

# Test system: NIH/3T3 cells transfected with control vector (MOCK)
# PROTOCOL DESCRIPTION: NIH/3T3 mock cell proliferation assay (CTG, counter assay)
# Format: cell-based
# RUN CONDITIONS: Mus musculus, NIH3T3; 72-hr incubation, CellTiter Glo; counter assay for general toxicity
pIC50: −log10 of the molar value.
Reported pIC50 values for a set of compounds
REPORTED METRIC: pIC50

COMPOUND	MEASURED NUMBER
COc1ccc2[nH]c(-c3c(NC(c4ncccn4)C(C)C)c4nn(C)cc4[nH]c3=O)nc2c1 (single isomer, unassigned)	5.87
CCC(Nc1c(-c2nc3ccc(OC)cc3[nH]2)c(=O)[nH]c2cn(C)nc12)c1ncccn1 (single isomer, unassigned)	6.02
CCOc1cc2nc(-c3c(N[C@@H](C)c4ncccn4)c4nn(CC)cc4[nH]c3=O)[nH]c2cc1OCC	6.18
COc1cc(OC)c2nc(-c3c(N[C@@H](C)c4ncccn4)c4nn(C)cc4[nH]c3=O)[nH]c2c1	6.09
